testedTarget: T1, CD3 on primary human pan T cells (human, UniProt P07766 23-207)
T1 construct: on cells it stands in the TCR/CD3 complex; also called Pan T-cells (CD3-positive); endogenous CD3
T1 sequence (P07766 23-207 limits assumed): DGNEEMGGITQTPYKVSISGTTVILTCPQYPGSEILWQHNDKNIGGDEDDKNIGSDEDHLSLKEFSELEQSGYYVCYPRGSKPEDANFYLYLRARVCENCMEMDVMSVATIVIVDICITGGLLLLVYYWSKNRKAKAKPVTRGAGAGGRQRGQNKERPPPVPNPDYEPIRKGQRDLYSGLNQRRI
procedureSummary: flow cytometry, pan T-cells
Mark Not met for % Binding retained on T-cells, 55° C. values under 1 fraction, and Met for everything at or above.

{"binder": "CD3B2034 (scFv) scFv: QVQLVQSGAEVKKPGSSVKVSCKASGYTFTRSTMHWVKQAPGQGLEWMGYINPSSAYTNYNQKFQGRVTLTADKSTSTAYMELSSLRSEDTAVYYCASPQVHYDYNGFPYWGQGTLVTVSSGGSEGKSSGSGSESKSTGGSEIVLTQSPATLSASPGERVTLSCSASSSVSYMNWYQQKPGQSPRRWIYDSSKLASGVPARFSGSGSGRDYTLTISSLEPEDFAVYYCQQWSRNPPTFGGGTKVEIK", "assignedCategory": "Not met"}
{"binder": "CD3B2089 (scFv) scFv: QVQLVQSGAEVKKPGSSVKVSCKASGYTFTRSTMHWVRQAPGQGLEWMGYINPSSAYTNYAQKFQGRVTLTADKSTSTAYMELSSLRSEDTAVYYCASPQVHYDYNGFPYWGQGTLVTVSSGGSEGKSSGSGSESKSTGGSEIVLTQSPATLSASPGERVTLSCSASSSVSYMNWYQQKPGQAPRRWIYDSSKLASGVPARFSGSGSGRDYTLTISSLEPEDFAVYYCQQWSRNPPTFGGGTKVEIK", "assignedCategory": "Met"}
{"binder": "CD3B2037 (scFv) scFv: QVQLVQSGAEVKKPGSSVKVSCKASGYTFTRSTMHWVKQAPGQGLEWMGYINPSSAYTNYAQKFQGRVTLTADKSTSTAYMELSSLRSEDTAVYYCASPQVHYDYNGFPYWGQGTLVTVSSGGSEGKSSGSGSESKSTGGSEIVLTQSPATLSASPGERVTLSCSASSSVSYMNWYQQKPGTSPRRLIYDSSKLASGVPARFSGSGSGRDYTLTISSLEPEDFAVYYCQQWSRNPPTFGGGTKVEIK", "assignedCategory": "Met"}
{"binder": "CD3B2072 (scFv) scFv: QVQLVQSGAEVKKPGSSVKVSCKASGYTFTRSTMHWVRQAPGQGLEWMGYINPSSAYTNYNQKFQGRVTLTADKSTSTAYMELSSLRSEDTAVYYCASPQVHYDYNGFPYWGQGTLVTVSSGGSEGKSSGSGSESKSTGGSEIVLTQSPATLSASPGERVTLSCSASSSVSYMNWYQQKPGQSPRRWIYDSSKLASGVPARFSGSGSGRDYTLTISSLEPEDFAVYYCQQWSRNPPTFGGGTKVEIK", "assignedCategory": "Not met"}
{"binder": "CD3B2031 (scFv) scFv: QVQLVQSGAEVKKPGSSVKVSCKASGYTFTRSTMHWVKQAPGQGLEWMGYINPSSAYTNYNQKFQGRVTLTADKSTSTAYMELSSLRSEDTAVYYCASPQVHYDYNGFPYWGQGTLVTVSSGGSEGKSSGSGSESKSTGGSEIVLTQSPATLSASPGERVTLSCSASSSVSYMNWYQQKPGTAPRRWIYDSSKLASGVPARFSGSGSGRDYTLTISSLEPEDFAVYYCQQWSRNPPTFGGGTKVEIK", "assignedCategory": "Met"}
{"binder": "CD3B2081 (scFv) scFv: QVQLVQSGAEVKKPGSSVKVSCKASGYTFTRSTMHWVRQAPGQGLEWIGYINPSSAYTNYAQKFQGRVTLTADKSTSTAYMELSSLRSEDTAVYYCASPQVHYDYNGFPYWGQGTLVTVSSGGSEGKSSGSGSESKSTGGSEIVLTQSPATLSASPGERVTLSCSASSSVSYMNWYQQKPGQAPRRWIYDSSKLASGVPARFSGSGSGRDYTLTISSLEPEDFAVYYCQQWSRNPPTFGGGTKVEIK", "assignedCategory": "Met"}
{"binder": "CD3B2065 (scFv) scFv: QVQLVQSGAEVKKPGSSVKVSCKASGYTFTRSTMHWVKQAPGQGLEWIGYINPSSAYTNYAQKFQGRVTLTADKSTSTAYMELSSLRSEDTAVYYCASPQVHYDYNGFPYWGQGTLVTVSSGGSEGKSSGSGSESKSTGGSEIVLTQSPATLSASPGERVTLSCSASSSVSYMNWYQQKPGQAPRRWIYDSSKLASGVPARFSGSGSGRDYTLTISSLEPEDFAVYYCQQWSRNPPTFGGGTKVEIK", "assignedCategory": "Met"}
